tgt: human GPR17 receptor (Homo sapiens)
Construct: host or cells: HEK-293
Sequence (Q13304 whole entry): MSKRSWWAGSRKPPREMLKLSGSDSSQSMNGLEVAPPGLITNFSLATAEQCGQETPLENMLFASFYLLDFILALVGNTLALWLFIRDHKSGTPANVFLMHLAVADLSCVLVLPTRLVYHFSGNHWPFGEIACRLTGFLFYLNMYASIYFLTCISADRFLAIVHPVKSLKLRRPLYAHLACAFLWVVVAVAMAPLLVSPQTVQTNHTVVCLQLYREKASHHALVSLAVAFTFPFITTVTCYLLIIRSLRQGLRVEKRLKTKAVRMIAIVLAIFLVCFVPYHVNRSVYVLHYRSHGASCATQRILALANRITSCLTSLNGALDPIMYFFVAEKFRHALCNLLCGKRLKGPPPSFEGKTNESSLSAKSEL
assay-protocol: Calcium mobilization functional assay (Fluo-8, FLIPR TETRA) in HEK-293 hGPR17 (Gα-q assay)
Assay type: cell-based
measurement-context: antagonism of MDL29,951 (~EC80) induced Ca2+ signal; cell line (HEK-293 hGPR17 or HEK-293 Suchi5 hGPR17) not given
pIC50: −log10 of the molar value.
# pIC50 per entry
measurement-type: pIC50

>  <smiles>
COc1cccc(F)c1-c1cc(S(=O)(=O)Nc2cc(F)c(C(F)(F)F)cc2F)c[nH]1

>  <measurement-type>
pIC50

>  <result>
5.30 to 6.30

$$$$
>  <smiles>
Cc1cc(-c2c[nH]cc2S(=O)(=O)Nc2ccc(C#N)cc2F)cs1

>  <measurement-type>
pIC50

>  <result>
> 6.30

$$$$
>  <smiles>
N#Cc1ccc(NS(=O)(=O)c2c[nH]cc2Cc2ccc(F)c(F)c2)c(F)c1

>  <measurement-type>
pIC50

>  <result>
> 6.30

$$$$
>  <smiles>
N#Cc1ccc(NS(=O)(=O)c2c[nH]cc2Cc2ccccc2Cl)c(F)c1

>  <measurement-type>
pIC50

>  <result>
5.30 to 6.30

$$$$
>  <smiles>
O=S(=O)(Nc1cccc2c1OCO2)c1c[nH]c(-c2ccccc2F)c1

>  <measurement-type>
pIC50

>  <result>
5.30 to 6.30

$$$$
>  <smiles>
N#Cc1cc(F)c(NS(=O)(=O)c2c[nH]cc2Cc2cccc(C3CC3)c2)cc1F

>  <measurement-type>
pIC50

>  <result>
5.30 to 6.30

$$$$
>  <smiles>
O=C1CCCN1c1cc(S(=O)(=O)Nc2cc(F)c(C(F)(F)F)cc2F)c[nH]1

>  <measurement-type>
pIC50

>  <result>
4.30 to 5.30

$$$$
>  <smiles>
COc1ccccc1Cc1c[nH]cc1S(=O)(=O)Nc1ccc(C#N)cc1F

>  <measurement-type>
pIC50

>  <result>
5.30 to 6.30

$$$$
>  <smiles>
N#Cc1ccc(NS(=O)(=O)c2c[nH]cc2Cc2ccc(OC(F)(F)F)cc2)c(F)c1

>  <measurement-type>
pIC50

>  <result>
4.30 to 5.30

$$$$

###

# pIC50 per entry
tgt: human GPR17 receptor (Homo sapiens)
assay-protocol: Calcium mobilization functional assay (Fluo-8, FLIPR TETRA) in HEK-293 hGPR17 (Gα-q assay)
measurement-context: antagonism of MDL29,951 (~EC80) induced Ca2+ signal; cell line (HEK-293 hGPR17 or HEK-293 Suchi5 hGPR17) not given
pIC50: −log10 of the molar value.

>  <smiles>
O=S(=O)(Nc1nc(F)c(OCCF)cc1F)c1c[nH]c(-c2nccs2)c1

>  <pIC50>
> 6.30

$$$$
>  <smiles>
O=S(=O)(Nc1ncc(OC(F)F)cc1F)c1c[nH]c(-c2ccccc2)c1

>  <pIC50>
5.30 to 6.30

$$$$
>  <smiles>
N#Cc1ccc(NS(=O)(=O)c2c[nH]c(-c3cccc(F)c3OC3CC3)c2)c(F)c1

>  <pIC50>
> 6.30

$$$$
>  <smiles>
N#Cc1ccc(NS(=O)(=O)c2c[nH]c(-c3ncccc3C(F)(F)F)c2)c(F)c1

>  <pIC50>
5.30 to 6.30

$$$$
>  <smiles>
O=S(=O)(Nc1cc(F)c(C(F)(F)F)cc1F)c1c[nH]c(-c2ccoc2)c1

>  <pIC50>
> 6.30

$$$$

###

# IC50 per entry
tgt: UniProt Q13304
assay-protocol: Calcium mobilization functional assay (Fluo-8, FLIPR TETRA) in HEK-293 hGPR17 (Gα-q assay)
measurement-context: antagonism of MDL29,951 (~EC80) induced Ca2+ signal; cell line (HEK-293 hGPR17 or HEK-293 Suchi5 hGPR17) not given

>  <smiles>
COCc1ccccc1-c1cc(S(=O)(=O)Nc2ccc(C#N)cc2F)c[nH]1

>  <IC50>
0.5 to 5 µM

$$$$
>  <smiles>
N#Cc1ccc(NS(=O)(=O)c2c[nH]c(-c3ncc(F)cc3F)c2)c(F)c1

>  <IC50>
< 0.5 µM

$$$$
>  <smiles>
O=S(=O)(Nc1cc(F)c(OC(F)F)cc1F)c1c[nH]c(-c2ccccc2)c1

>  <IC50>
< 0.5 µM

$$$$
>  <smiles>
O=S(=O)(Nc1cc(F)c(OC(F)F)cc1F)c1c[nH]c(-c2csc(Cl)c2)c1

>  <IC50>
0.5 to 5 µM

$$$$
>  <smiles>
CN(C)c1ccccc1-c1cc(S(=O)(=O)Nc2ccc(C#N)cc2F)c[nH]1

>  <IC50>
0.5 to 5 µM

$$$$
>  <smiles>
O=S(=O)(Nc1cc(F)c(OC(F)F)cc1F)c1c[nH]c(-c2cccc(Cl)n2)c1

>  <IC50>
< 0.5 µM

$$$$
>  <smiles>
N#Cc1ccc(NS(=O)(=O)c2c[nH]c(-c3ccccc3)c2)nc1

>  <IC50>
5 to 50 µM

$$$$
>  <smiles>
N#Cc1ccc(NS(=O)(=O)c2c[nH]cc2-c2ccsc2)c(F)c1

>  <IC50>
0.5 to 5 µM

$$$$
>  <smiles>
Cc1ccccc1-c1cc(S(=O)(=O)Nc2cc(F)c(C(F)(F)F)cc2F)c[nH]1

>  <IC50>
0.5 to 5 µM

$$$$
>  <smiles>
O=S(=O)(Nc1cc(F)c(OC(F)F)cc1F)c1c[nH]c(-c2ncco2)c1

>  <IC50>
< 0.5 µM

$$$$
>  <smiles>
Cc1ccc(-c2cc(S(=O)(=O)Nc3cc(F)c(C(F)(F)F)cc3F)c[nH]2)s1

>  <IC50>
0.5 to 5 µM

$$$$
>  <smiles>
O=S(=O)(Nc1cc(F)c(OC(F)F)cc1F)c1c[nH]c(-c2nc3ccccc3s2)c1

>  <IC50>
0.5 to 5 µM

$$$$
>  <smiles>
N#Cc1ccc(NS(=O)(=O)c2c[nH]c(-c3cc(CO)ccc3F)c2)c(F)c1

>  <IC50>
0.5 to 5 µM

$$$$
>  <smiles>
O=S(=O)(Nc1cc(F)c(OCC(F)F)cc1F)c1c[nH]cc1-c1cccc(F)c1

>  <IC50>
0.5 to 5 µM

$$$$
>  <smiles>
O=S(=O)(Nc1cc(F)c(C(F)(F)F)cc1F)c1c[nH]c(-c2ccccc2)c1F

>  <IC50>
< 0.5 µM

$$$$
>  <smiles>
O=S(=O)(Nc1cc(F)c(OC(F)F)cc1F)c1c[nH]c(-c2ccc(F)cc2F)c1

>  <IC50>
0.5 to 5 µM

$$$$
>  <smiles>
COc1ccc(-c2cc(S(=O)(=O)Nc3ccc(C#N)cc3F)c[nH]2)c(C)c1

>  <IC50>
5 to 50 µM

$$$$
>  <smiles>
N#Cc1ccc(NS(=O)(=O)c2c[nH]c(-c3ccccn3)c2)c(F)c1

>  <IC50>
< 0.5 µM

$$$$
>  <smiles>
N#Cc1ccc(NS(=O)(=O)c2c[nH]c(-c3ccccc3F)c2)cc1Cl

>  <IC50>
0.5 to 5 µM

$$$$
>  <smiles>
Cc1cc(F)cnc1-c1cc(S(=O)(=O)Nc2ccc(C#N)cc2F)c[nH]1

>  <IC50>
< 0.5 µM

$$$$
>  <smiles>
O=S(=O)(Nc1ccc(OCCF)cc1F)c1c[nH]c(-c2ccccc2F)c1

>  <IC50>
5 to 50 µM

$$$$
>  <smiles>
O=S(=O)(Nc1cc2cccnc2cc1F)c1c[nH]c(-c2ccccc2)c1

>  <IC50>
0.5 to 5 µM

$$$$
>  <smiles>
N#Cc1ccc(NS(=O)(=O)c2c[nH]cc2CCc2ccccc2)c(F)c1

>  <IC50>
5 to 50 µM

$$$$
>  <smiles>
COc1cccc(OC)c1-c1cc(S(=O)(=O)Nc2ccc(C#N)cc2F)c[nH]1

>  <IC50>
0.5 to 5 µM

$$$$
>  <smiles>
N#Cc1cc(F)c(NS(=O)(=O)c2c[nH]c(-c3ccc(F)cc3F)c2)cc1F

>  <IC50>
< 0.5 µM

$$$$
>  <smiles>
N#Cc1cc(F)c(NS(=O)(=O)c2c[nH]c(-c3ccc(F)cc3)c2)cc1Cl

>  <IC50>
0.5 to 5 µM

$$$$
>  <smiles>
COc1c(F)cccc1-c1cc(S(=O)(=O)Nc2ccc(C#N)cc2F)c[nH]1

>  <IC50>
< 0.5 µM

$$$$
>  <smiles>
O=S(=O)(Nc1cc(OC(F)F)c(Cl)cc1F)c1c[nH]c(-c2ccccn2)c1

>  <IC50>
0.5 to 5 µM

$$$$
>  <smiles>
O=S(=O)(Nc1cc(F)c(C(F)(F)F)cc1F)c1c[nH]c(-c2ccccc2Cl)c1

>  <IC50>
0.5 to 5 µM

$$$$
>  <smiles>
N#CCOc1cc(F)c(NS(=O)(=O)c2c[nH]c(-c3ccc(F)cc3F)c2)cc1F

>  <IC50>
0.5 to 5 µM

$$$$
>  <smiles>
O=S(=O)(Nc1cc(F)c(Br)cc1F)c1c[nH]c(-c2ccccc2)c1

>  <IC50>
< 0.5 µM

$$$$
>  <smiles>
O=S(=O)(Nc1cc(F)c(C(F)(F)F)cc1F)c1c[nH]c(-c2ccoc2Cl)c1

>  <IC50>
< 0.5 µM

$$$$
>  <smiles>
O=S(=O)(Nc1cc(F)c(C(F)(F)F)cc1F)c1c[nH]cc1Cc1cccc(F)c1

>  <IC50>
0.5 to 5 µM

$$$$
>  <smiles>
COc1cc(C#N)c(F)cc1NS(=O)(=O)c1c[nH]c(-c2ccccc2)c1

>  <IC50>
< 0.5 µM

$$$$
>  <smiles>
O=S(=O)(Nc1ccc(Cl)cc1F)c1c[nH]c(-c2ccccc2F)c1

>  <IC50>
0.5 to 5 µM

$$$$
